test: Permeability of the compound at pH 7.4 by PAMPA; assay type: ADME; settings: read-out: permeability
Measured Papp, listed per entry.
Property name: Papp (nm/s)

> print(dat)
                           structure.string  property.name  reported.value
1  CC(C)COc1ccc(-c2nn(C)c3cc(C(=O)NS(=O)(=O)C4CC4)c(F)cc23)cn1           Papp             100
2  Cn1nc(-c2ccc(C(F)(F)F)cc2)c2cc(F)c(C(=O)NS(=O)(=O)C3CC3)cc21           Papp             102
3  CC(C)COc1ncc(-c2nn(C)c3cc(C(=O)NS(C)(=O)=O)ccc23)cc1Cl           Papp             417
4  CC(C)COc1ncc(-c2cn(C)c3cc(C(=O)NS(=O)(=O)C4CC4)c(F)cc23)cc1Cl           Papp             310
5  Cn1cc(-c2ccc(C(F)F)cc2)c2cc(F)c(C(=O)NS(=O)(=O)C3CC3)cc21           Papp              60
6  CC(C)COc1ncc(-c2cn(C)c3cc(C(=O)NS(C)(=O)=O)c(F)cc23)cc1Cl           Papp             205
7  CC(C)COc1ncc(-c2cn(C)c3cc(C(=O)NS(C)(=O)=O)ccc23)cc1Cl           Papp             216
8  Cn1cc(-c2ccc(C(F)(F)F)cc2)c2cc(F)c(C(=O)NS(=O)(=O)C3CC3)cc21           Papp             323
9  Cn1cc(-c2ccc(C(F)(F)F)cc2)c2ccc(C(=O)NS(=O)(=O)C3CC3)cc21           Papp             135

* * *

test: Plasma concentration in CD1 mouse model of formalin-induced nociception at 30 mg/kg, ip; format: ADME, organism-based; conditions: read-out: Cp, in vivo
Property name: concentration

> print(dat)
                           structure.string  property.name  reported.value
1  CC(C)COc1ncc(-c2cn(C)c3cc(C(=O)NS(C)(=O)=O)ccc23)cc1Cl  concentration           59 µM

* * *

Measured remaining at 10 min, 0.5 µM, listed per entry.
experiment: Metabolic stability in mouse liver microsomes assessed as parent compound remaining at 0.5 uM after 10 mins; type: ADME, Microsome; details: read-out: Stability
Property name: remaining at 10 min, 0.5 µM

> print(dat)
                           structure.string  reported.value
1  CC(C)COc1ccc(-c2cn(C)c3cc(C(=O)NS(C)(=O)=O)c(F)cc23)cn1             99%
2  Cn1cc(-c2ccc(C(F)(F)F)cc2)c2ccc(C(=O)NS(C)(=O)=O)cc21             54%
3  CC(C)Cc1ccc(-c2cn(C)c3cc(C(=O)NS(C)(=O)=O)ccc23)cc1            100%
4  CC(C)COc1ncc(-c2cn(C)c3cc(C(=O)NS(=O)(=O)C4CC4)c(F)cc23)cc1Cl            100%
5  CC(C)COc1ccc(-c2nn(C)c3cc(C(=O)NS(=O)(=O)C4CC4)c(F)cc23)cn1             92%
